# experiment_notes: MMV: MTT Cytotoxicity Assay Day 7 pi of Assay #10 (NO washout), U87-CD4-CCR5 cells, % cell death @ 5mM compound
# Assay type: toxicity, cell-based
# details: human, u87-cd4-ccr5, 5000 µM
I'd appreciate it if you could supply % Cell Death values for the items below.

# annotated cases, reported % Cell Death shown
FC(F)(F)c1cccc(CNC2CCN(CCc3ccccc3)CC2)c1
-16
O=C(O)C(=O)O.Oc1ccc(Br)cc1CN1CCN(Cc2cccc(F)c2)CC1
103
Cl.Oc1ccccc1CNCC12CC3CC(CC(C3)C1)C2
37
COc1ccc(C2C(C(=O)Nc3cccc(OC)c3)c3ccccc3C(=O)N2C2CCCCC2)cc1 (stereo unspecified)
-8
COc1cc(OC)c(N(C)C(=O)c2cc3c(s2)-c2ccccc2S(=O)(=O)C3)cc1Cl
-2
COc1ccc(C(O)(CCC(C)C)C(CN2CCOCC2)c2ccc(Cl)cc2)cc1.Cl (stereo unspecified)
102

Go through the items and report each one's % Cell Death.
1. O=C(NC1CCN(Cc2ccccc2)CC1)c1cc(C(=O)NC2CCN(Cc3ccccc3)CC2)cc(C(=O)NC2CCN(Cc3ccccc3)CC2)c1
2. CC1CCN(Cc2ccc(NC(=O)c3cc4ccc5cccnc5c4[nH]3)cc2)CC1
3. Cc1cc(Nc2cccc(F)c2)nc(NCc2ccccc2)n1
4. Cc1cc(=O)oc2c1ccc1oc(C(=O)c3ccccc3)c(C)c12

48
3
20
35

Go through the items and report each one's % Cell Death.
1. COc1ccccc1CNC(=O)CCn1c(=O)[nH]c2ccccc2c1=O
2. COc1ccc(Br)cc1C1Nc2ccc3ccccc3c2C2=C1C(=O)CC(c1ccccc1)C2 (stereo unspecified)
3. Oc1ccc(C(=C(Cl)Cl)c2ccc(O)cc2)cc1
4. FC(F)(F)c1cccc(Nc2nc(-c3ccccc3)nc3ncccc23)c1
5. Cc1sc(NC(=O)c2ccccc2)c(C(c2cccs2)N2CCN(c3ccccc3)CC2)c1C (stereo unspecified)
6. OC(CNC1CCCCC1)Cn1c2ccc(I)cc2c2cc(I)ccc21 (stereo unspecified)
7. COc1cccc(NC(=O)[C@H](C(C)C)n2c(=O)[nH]c3ccccc3c2=O)c1
8. O=C(O)C1Cc2c([nH]c3ccccc23)C(c2ccc(Cl)cc2Cl)N1 (stereo unspecified)

16
16
84
19
95
-2
27
27

Go through the items and report each one's % Cell Death.
1. COc1ccc(C(=O)Nc2nonc2-c2ccc(OC)c(OC)c2)cc1Cl
2. OC1CCCCC1C1(NC(=S)Nc2ccccc2)CCCCC1 (stereo unspecified)
3. Cc1c(C)n(Cc2ccc(F)cc2)c2ccc(C(=O)NCc3ccco3)cc12

[100, 4, 146]

----------
# experiment_notes: MMV: MTT Cytotoxicity Assay Day 7 pi of Assay #10 (NO washout), U87-CD4-CCR5 cells, % cell death @ 5mM compound
# Type: toxicity, cell-based
# details: human, u87-cd4-ccr5, 5000 µM
I'd appreciate it if you could supply % Cell Death values for the items below.
Numbers only.

O=C(Nc1ccc(Cl)cc1)N1CCN(c2ccc3nncn3n2)CC1
92
CCOC(=O)C1=CN(C)C=C(C(=O)OCC)C1c1cc(Br)c(OCC)c(OC)c1
103
COc1ccc2c(c1)C1(Nc3ccccc3-c3nc4ccccc4n31)C(=O)N2 (centres undefined)
29
C[n+]1c2ccccc2nc2ccc(NCCO)cc21
49
O=C(Nc1ccc(N2CCN(Cc3ccccc3)CC2)cc1)c1cccs1.O=C(O)C(F)(F)F
124

Go through the items and report each one's % Cell Death.
1. CCOC(=O)c1cnc2ccc(CC)cc2c1O
2. CCOC(=O)c1cnc2ccc(Cl)cc2c1NCCCN(C)C
3. CCCCCCn1c(=N)n(CC(O)COc2cccc(C)c2)c2ccccc21.Cl (centres undefined)

1: 21; 2: -6; 3: 71
